Test system: EKVX NSCLC
test-summary: NCI tumour cell line growth inhibition, 48 h
# GI50 per record follows

What the record says about COc1ccc(-c2nn3ncccc3c2-c2ccnc(Nc3ccc4c(c3)OCCO4)n2)cc1 : GI50 is 9.61 µM

What the record says about O=C(/C=C\n1cnc(-c2cc(C(F)(F)F)cc(C(F)(F)F)c2)n1)N1CC(F)(F)C1 : GI50 is 0.953 µM

What the record says about Cc1c(C)c2c(c(C)c1OCC(=O)O)CC[C@@](C)(CCC[C@@H](C)CCC[C@@H](C)CCCC(C)C)O2 : GI50 is 64.2 µM

What the record says about Oc1c(O)c(Cl)c(Cl)c(Cl)c1Cl : GI50 is 2.95 µM

---

Test system: SK-MEL-2 melanoma
test-summary: NCI tumour cell line growth inhibition, 48 h
# log10 TGI per record follows
Recorded TGI (log10, µM)

N#Cc1c(-c2ccc([N+](=O)[O-])cc2)cc(-c2ccc(Nc3ccnc4cc(Cl)ccc34)cc2)nc1N
1.64

What the record says about COc1cc2nc(-c3cccc4cccnc34)nc(NC3CCN(Cc4ccccc4)CC3)c2cc1OC : log10 TGI is 0.55

What the record says about COc1cc2c(c(OC)c1OC)-c1ccc(SC)c(=O)cc1C(CC(=O)Oc1cccc(F)c1)C2 (stereo unspecified) : log10 TGI is 0.98

---

System: A549 NSCLC
test-summary: NCI tumour cell line growth inhibition, 48 h
endpoint-name: TGI

COc1ccc(-c2nc(N)c(C#N)c3c2CCOc2c-3ccc3ccccc23)cc1
76.7 µM
CNC(=S)/C(C#N)=C(\N)N1CCCC1
> 100 µM

What the record says about O=P1(Cc2ccccc2)c2ccccc2-c2ccccc21 : TGI is > 94.6 µM

What the record says about COc1cc2c(c(OC)c1OC)-c1ccc(SC)c(=O)cc1C(CC(=O)Oc1cccc(F)c1)C2 (stereo not given) : TGI is > 100 µM

What the record says about O=C(/C(=N/Nc1ccccc1)c1ccc([N+](=O)[O-])cc1)c1ccc([N+](=O)[O-])cc1 : TGI is > 100 µM

---

Test system: LOX IMVI melanoma
test-summary: NCI tumour cell line growth inhibition, 48 h
endpoint-name: log10 of TGI (log10 of the value in µM)
Recorded TGI (log10, µM)

C=CC[C@]1(C2=NC(C)(C)CO2)c2ccccc2-c2ccccc2[C@H]1C(C)=O
1.41
O=C(C1OC1c1cccc([N+](=O)[O-])c1)C12CC3CC(CC(C3)C1)C2 (stereo not given)
0.58
C=C1C(=O)O[C@H]2[C@H]1CC/C(COC(=O)NCCc1cccc(OC)c1)=C\CC[C@@]1(C)O[C@@H]21
0.45
Oc1c(O)c(Cl)c(Cl)c(Cl)c1Cl
1.31
O=[N+]([O-])C(C(Cl)=C(Cl)Cl)=C(n1cncn1)n1cncn1
1.65

Entry COc1cc2c(c(OC)c1OC)-c1ccc(SC)c(=O)cc1C(CC(=O)Oc1cccc(F)c1)C2 (stereo not given) : log10 of TGI on LOX IMVI melanoma = 1.03

---

Tested on: OVCAR-3 ovarian
test-summary: NCI tumour cell line growth inhibition, 48 h
endpoint-name: log10 of TGI (log10 of the value in µM)
Recorded TGI (log10, µM)

O=C1Nc2ccccc2/C1=C/c1cn(CC(O)Cn2cc(/C=C3\C(=O)Nc4ccccc43)c3ccccc32)c2ccccc12 (stereo not given)
0.52
O=C(CN(/C=C/C(=O)C(F)(F)F)c1ccccc1)c1ccc(Cl)cc1
1.67
Cc1ccc(O)c(NC2=C(Cl)C(=O)N(Cc3ccccc3)C2=O)c1
1.52
COc1cc(NC(C)CCCNC(C)C)c2ncccc2c1OC (stereo not given)
1.71

Here is another compound to look at.
What the record says about CC[n+]1c(/C=C/c2ccc(N(CCCl)CCCl)cc2)ccc2cc(I)ccc21 : log10 of TGI is 0.05

---

# TGI per record follows
System: HOP-92 NSCLC
test-summary: NCI tumour cell line growth inhibition, 48 h

Consider the following illustrative entries.
Nc1ccc(-c2ccc3ncc4ccc(=O)n(-c5cccc(C(F)(F)F)c5)c4c3c2)cn1
< 0.0226 µM
Cc1ccc(/S(Cc2ccccc2)=N\S(=O)(=O)c2ccc(C)cc2)cc1 (centres undefined)
> 100 µM
CC(CC[C@@]1(O)OC2C[C@H]3[C@@H]4CC[C@H]5CC(OC6OC(CO)C(OC7OC(CO)C(O)C(OC8OCC(O)C(O)C8O)C7OC7OC(CO)C(O)C(O)C7O)C(O)C6O)[C@H](O)CC5(C)[C@H]4CCC3(C)C2[C@@H]1C)COC1OC(CO)C(O)C(O)C1O (some centres undefined)
> 50 µM

Here is another compound to look at.
What the record says about Nc1nc2c(ccc3ccccc32)s1 : TGI is 85.2 µM

---

# TGI per record follows
System: HCT-15 colon
test-summary: NCI tumour cell line growth inhibition, 48 h

CCOC(=O)C1(C(=O)OCC)C=C(c2ccccc2)N(C2OC(COC(C)=O)C(OC(C)=O)C(OC(C)=O)C2OC(C)=O)C1=S (configuration not stated)
> 100 µM
C[C@H]1O[C@@H](C(C)(C)C)OC(=O)[C@@H]1C(OC(=O)c1ccccc1)c1cccc2ccccc12 (some centres not stated)
> 100 µM
C=CCCC(=O)C(=[N+]=[N-])C(=O)CCC(=O)c1ccccc1
> 10 µM
[N-]=[N+]=Nc1ccc2c(c1)Sc1ccccc1N2CCCCN1CCN(C(=O)CCNC(=O)Cc2ccc(C(=O)c3ccccc3)cc2)CC1
8.52 µM
O=C(/C=C\n1cnc(-c2cc(C(F)(F)F)cc(C(F)(F)F)c2)n1)N1CC(F)(F)C1
4.86 µM
COC(=O)[C@H](Cc1c[nH]c2ccccc12)NC(=O)c1ccccc1I
> 100 µM

Entry C/C(O)=C(\C=NC(=S)c1ccncc1)C(=O)Nc1ccccc1C : TGI on HCT-15 colon = > 100 µM

Entry CCOc1ccc(N=Cc2ccnc3ccccc23)cc1 : TGI on HCT-15 colon = > 87.9 µM

---

Test system: MDA-MB-435
endpoint-name: GI50

Nc1nc2c(ccc3ccccc32)s1
57100 nM
Oc1c(O)c(Cl)c(Cl)c(Cl)c1Cl
3420 nM
Cc1nc(Sc2nc3ccc([N+](=O)[O-])cc3s2)sc1C
1780 nM
COc1cc(Nc2ncnc(Nc3ccc4c(n3)NC(=O)C(C)(C)O4)n2)cc(OC)c1OC
2090 nM
COc1ccc2nc3cccc([N+](=O)[O-])c3c(NCCNCCN(C)C)c2c1
111 nM

Entry COc1ccc(-c2nsc3c2NC(=O)CC3c2cccc(Cl)c2)cc1 (configuration not stated) : GI50 on MDA-MB-435 = 226 nM

Entry O=C(CN(/C=C/C(=O)C(F)(F)F)c1ccccc1)c1ccc(Cl)cc1 : GI50 on MDA-MB-435 = 19500 nM

Entry O=C1Nc2ccccc2/C1=C/c1cn(CC(O)Cn2cc(/C=C3\C(=O)Nc4ccccc43)c3ccccc32)c2ccccc12 (configuration not stated) : GI50 on MDA-MB-435 = 1810 nM

Entry CCCCN1C(=O)/C(=c2\sc3n(c2=O)C2C(NN=3)N(CC)C(=O)N2CC)c2ccccc21 (configuration not stated) : GI50 on MDA-MB-435 = 255 nM

Entry CC1=C(C#N)C(/C=C(\Cl)c2ccc(F)cc2)C(C#N)=C(C)N1 : GI50 on MDA-MB-435 = > 100000 nM

Entry CC(C)(C)c1nc(-c2cccc(NS(=O)(=O)c3c(F)cccc3F)c2F)c(-c2ccnc(N)n2)s1 : GI50 on MDA-MB-435 = < 10 nM

Entry COc1cc(-c2cc3ncccc3c3[nH]c(=O)c4cccnc4c23)cc(OC)c1OC : GI50 on MDA-MB-435 = 181 nM

---

System: OVCAR-3 ovarian
test-summary: NCI tumour cell line growth inhibition, 48 h
Note to self: values exactly at 5 µM are True. So TGI at or above 5 µM is True, below is False.

O=C1/C(=C/c2ccccc2)CCCc2ccccc21
True
N#Cc1c(-c2ccc([N+](=O)[O-])cc2)cc(-c2ccc(Nc3ccnc4cc(Cl)ccc34)cc2)nc1N
True
O=C(Oc1ccccc1)C(Br)C(Br)c1ccccc1 (stereo not given)
False

Q: Is the recorded value of TGI equal to or greater than 5 µM for this compound? C=CCN(CCN(CC=C)S(=O)(=O)c1ccc(C)cc1)S(=O)(=O)c1ccc(C)cc1
Ans: True

Q: Is the recorded value of TGI equal to or greater than 5 µM for this compound? Cc1nc(Nc2ccc(Cl)c(Cl)c2)sc1C(=O)/C=C/c1ccc2c(c1)OCO2
Ans: True

Q: Is the recorded value of TGI equal to or greater than 5 µM for this compound? COc1cc2c(c(OC)c1OC)-c1ccc(SC)c(=O)cc1C(CC(=O)Oc1cccc(F)c1)C2 (stereo not given)
Ans: False

Q: Is the recorded value of TGI equal to or greater than 5 µM for this compound? NS(=O)(=O)c1nnc(NS(=O)(=O)c2ccc([N+](=O)[O-])cc2)s1
Ans: True
